These entries and their values trace back to patent US20160348113.

Target: T1, BAFF-R (B-cell activating factor receptor, TNFRSF13C) (Homo sapiens, UniProt Q96RJ3 Q96RJ3:1-76)
T1 sequence: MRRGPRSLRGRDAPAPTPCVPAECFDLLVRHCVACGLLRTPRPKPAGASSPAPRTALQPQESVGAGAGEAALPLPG
Assay: EMSA; about; UU linker
Settings: tags: ProSpect (Israel), human recombinant; label: 32P
quantity.name: Kd (nM)
Please give a number only; it is taken to be in nM.

Some binders with known Kd results, for comparison:
binder	unit.text	endpoint.result
R-14 D-2 chimera (mixed, 2'-F pyrimidines in transcribed aptamer-sense strand) RNA 1: GGGAGGACGAUGCGGAUAACUAUUGUGCUAGAGGGCUUAUUUAUGUGAGCCGGUUGAUAGUUGCGCAGACGACUCGCCCGAUUUGUGCCACAGAUGUGAAGUUCAUUUCC RNA 2: AAAUGAACUUCACAUCUGUGGCACA	nM	73
R-1 D-2 chimera (CCND1 siRNA design 2) (mixed, 2'-F pyrimidines in transcribed aptamer-sense strand) RNA 1: GGGAGGACGAUGCGGGAGGCUCAACAAUGAUAGAGCCCGCAAUGUUGAUAGUUGUGCCCAGUCUGCAGACGACUCGCCCGAUUUGUGCCACAGAUGUGAAGUUCAUUUCC RNA 2: AAAUGAACUUCACAUCUGUGGCACA	nM	126
R-14 D-1 chimera (mixed, 2'-F pyrimidines in transcribed aptamer-sense strand) RNA 1: GGGAGGACGAUGCGGAUAACUAUUGUGCUAGAGGGCUUAUUUAUGUGAGCCGGUUGAUAGUUGCGCAGACGACUCGCCCGAUUCCACAGAUGUGAAGUUCAUUUCCAA RNA 2: UUGGAAAUGAACUUCACAUCUGUGGCA	nM	80
R-1 D-1-Mutated chimera (mixed, 2'-F pyrimidines in transcribed aptamer-sense strand) RNA 1: GGGAGGACGAUGCGGGAGGCUCAACAAUGAUAGAGCCCGCAAUGUUGAUAGUUGUGCCCAGUCUGCAGACGACUCGCCCGAUUCUCCAGAUUCCAAGCACAUUGUGAA RNA 2: UUCACAAUGUGCUUGGAAUCUGGAGCA	nM	51

Field: next binder
R-1 D-1 chimera (CCND1 siRNA design 1) (mixed, 2'-F pyrimidines in transcribed aptamer-sense strand) RNA 1: GGGAGGACGAUGCGGGAGGCUCAACAAUGAUAGAGCCCGCAAUGUUGAUAGUUGUGCCCAGUCUGCAGACGACUCGCCCGAUUCCACAGAUGUGAAGUUCAUUUCCAA RNA 2: UUGGAAAUGAACUUCACAUCUGUGGCA yielded Kd of 66
